- measurement.description: Tissue distribution of TET after a single i.t. administration in normal and LPS-treated mice
- protocol.conditions: BALB/c, mouse, spleen, inhaled or intranasal, 15 mg/kg, MRT, normal mice; 15 mg/kg i.t.
observation.type: MRT (h)
Could you give me the number in h? Just the number is fine.

What the record says about COc1ccc2cc1Oc1ccc(cc1)C[C@H]1c3cc(c(OC)cc3CCN1C)Oc1c(OC)c(OC)cc3c1[C@H](C2)N(C)CC3 : MRT is 112

* * *

- measurement.description: Tissue distribution of TET after a single i.t. administration in normal and LPS-treated mice
- protocol.conditions: BALB/c, mouse, in vivo, inhaled or intranasal, 15 mg/kg, AUC(0-t), normal mice; 15 mg/kg i.t.; kidney
- Description: The different tissue distribution characteristics of TET in normal and pneumonia model mice via i.t. delivery were investigated. Thirty BALB/c mice were randomly divided into ten groups (n = 3 for each group). […] Pharmacokinetic parameters including t1/2, AUC(0-t), AUC(0-∞), and MRT were calculated using WinNonlin 7.0 (Pharsight, CA) by the non-compartmental model. […] Blood clearance (CL) was calculated as the i.v. dose divided by AUCinf. […]
observation.type: AUC(0-t) (µg·h/mL)
Could you give me the number in µg·h/mL? Just the number is fine.

What the record says about COc1ccc2cc1Oc1ccc(cc1)C[C@H]1c3cc(c(OC)cc3CCN1C)Oc1c(OC)c(OC)cc3c1[C@H](C2)N(C)CC3 : AUC(0-t) is 6510
